Value source: patent US4762781A

- assayed.target: anti-GABA antiserum
- protocol.notes: Equilibrium dialysis competition with tracer (3H) GABA-GA-PPL
- condition.set: dissociation constant of the anti-GABA antibodies for the antigen
measured.property: pKd
The read-out pKd is expressed as -log10 of concentration in moles per litre.

Using the record for O=C(O)CCCNCCCCCNCCCC[C@H](NC(=O)[C@H](Cc1ccccc1)NC(=O)[C@@H]1CCCN1)C(=O)O , report its pKd.
7.70

====

- assayed.target: anti-TA antibodies
- protocol.notes: Equilibrium dialysis competition, displacement of (3H)-TA-G-ALM
- Format: binding, rabbit
- condition.set: displacement of (3H)-TA-G-ALM from anti-TA antibodies; 1200 min
measured.property: affinity constant KA

Reported affinity constant KA, compound CNC(=O)[C@H](CCCCNCCCCCNCCc1ccc(O)c(O)c1)NC(C)=O : ____
2.6×10^4 l.mol.^-1

Consider the compound CNC(=O)[C@H](CCCCNCCCCCNCC(O)c1ccc(O)c(O)c1)NC(C)=O (stereo partly shown) and give its measured affinity constant KA.
1.4×10^4 l.mol.^-1

Recorded affinity constant KA of CNC(=O)[C@H](CCCCNCCCCCNCCc1ccc(O)cc1)NC(C)=O , please.
7×10^7 l.mol.^-1

Recorded affinity constant KA for NCCc1ccc(O)cc1 [TA, p-tyramine, reference compound] , please?
10^4 l.mol.^-1
